# Assayed target: RIPK2 and XIAP protein-protein interaction (Homo sapiens, UniProt O43353)
# Construct: the N-terminus of full-length RIPK2 was appended with the HaloTag fusion protein
# Sequence (O43353 whole entry, the tested form may be a part): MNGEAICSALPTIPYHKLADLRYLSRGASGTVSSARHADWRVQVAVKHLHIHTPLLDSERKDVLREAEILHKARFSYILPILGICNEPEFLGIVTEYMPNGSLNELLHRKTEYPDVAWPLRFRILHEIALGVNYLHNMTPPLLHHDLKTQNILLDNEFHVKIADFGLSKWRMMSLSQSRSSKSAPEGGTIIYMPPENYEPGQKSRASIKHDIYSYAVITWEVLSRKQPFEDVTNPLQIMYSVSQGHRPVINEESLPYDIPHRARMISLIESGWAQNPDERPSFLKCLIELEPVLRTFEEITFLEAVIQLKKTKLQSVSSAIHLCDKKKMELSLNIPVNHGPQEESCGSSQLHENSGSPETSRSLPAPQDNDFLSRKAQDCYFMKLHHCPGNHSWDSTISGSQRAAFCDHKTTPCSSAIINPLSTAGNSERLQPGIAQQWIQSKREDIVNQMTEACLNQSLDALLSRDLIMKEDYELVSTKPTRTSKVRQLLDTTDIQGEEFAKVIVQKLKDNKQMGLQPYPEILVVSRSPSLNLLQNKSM
# Procedure summary: Inhibition of the interaction of RIPK2 with XIAP (NanoBRET in HEK293T cells)
# Test conditions: RIPK2 HaloTag / XIAP NanoLuc, read-out: NanoBRET Scaffolding IC50
Can you tell me log10 of IC50 for the items I'm about to list?
Transform log10 | Measure IC50 | Unit µM

-- ask Given the compound CC(C)(C)n1cc(NC(=O)Cc2ccc(Oc3ccnc4ccc(S(C)(=N)=O)cc34)cc2F)cn1 (stereo not drawn) [Compound 43] , what is its reported log10 of IC50?
-- reply -0.66

-- ask Given the compound CCS(=N)(=O)c1ccc2nccc(Oc3ccc(CC(=O)Nc4cnn(C(C)(C)C)c4)cc3C)c2c1 (single isomer, unassigned) [Compound 545] , what is its reported log10 of IC50?
-- reply -0.74

-- ask Given the compound Cc1cc(CC(=O)Nc2cnn(C(C)(C)C)c2)cc(F)c1Oc1ccnc2ccc(S(C)(=O)=O)cc12 [Compound 299] , what is its reported log10 of IC50?
-- reply -1.14

-- ask Given the compound [2H]C([2H])([2H])NC(=O)c1cc2c(Oc3cc(F)c(CC(=O)Nc4cnn(C(C)(C)C)c4)cc3C)ccnc2cc1F [Compound 494] , what is its reported log10 of IC50?
-- reply -1.69

-- ask Given the compound Cc1cc(CC(=O)Nc2cnn(C(C)(C)C)c2)ccc1Oc1ccnc2ccc(C(N)=O)cc12 [Compound 487] , what is its reported log10 of IC50?
-- reply -1.32

-- ask Given the compound Cc1c(CC(=O)Nc2cnn(C(C)(C)C)c2)ccc(Oc2ccnc3ccc(S(C)(=O)=O)cc23)c1C [Compound 518] , what is its reported log10 of IC50?
-- reply -1.57

-- ask Given the compound Cc1cc(CC(=O)Nc2cnn(C(C)(C)C)c2)cc(F)c1Oc1ccnc2ccc(C(N)=O)cc12 [Compound 468] , what is its reported log10 of IC50?
-- reply -1.16

-- ask Given the compound CNC(=O)c1ccc2nccc(Oc3cc(F)c(CC(=O)Nc4cnn(C56CC(C5)C6)c4)cc3Cl)c2c1 [Compound 510] , what is its reported log10 of IC50?
-- reply -0.76

-- ask Given the compound Cc1cc(CC(=O)Nc2cnn(C(C)(C)C)c2)c(F)cc1Oc1ccnc2ccc(C(=O)NC34CC(C3)C4)cc12 [Compound 513] , what is its reported log10 of IC50?
-- reply -1.46
